Sourced from patent US20260374766A1

For each entry below, report its pKd value.
- STUDY SYSTEM: p53 Y220C mutant protein (amino acid residues 94-293) (Homo sapiens, UniProt P04637, Y220C)
- Construct: p53 Y220C mutant protein (amino acid residues 94-293)
- PROCEDURE TEXT: Surface Plasmon Resonance (SPR) assay, Kd_kinetic
- Assay type: binding
- CONDITIONS USED: SPR; p53 Y220C; read-out: SPR P53 Y220C KD kinetic
pKd: −log10 of the molar value.

These solved cases illustrate the format of a correct answer.
SMILES STRUCTURE: CCNC(=O)c1ccc(NCC#Cc2cc3c(N[C@@H]4CCN(C)C[C@@H]4F)nccn3c2SC(F)(F)F)c(OC)c1
pKd: > 8.00

SMILES STRUCTURE: C[C@H](NC(=O)c1ccc(NCC#Cc2cc3c(N[C@@H]4CCN(C)C[C@@H]4F)cccn3c2SC(F)(F)F)cc1)[C@@H](C)O
pKd: > 8.00

SMILES STRUCTURE: C[C@@H](O)CNC(=O)c1ccc(OC2COC2)c(NCC#Cc2cc3c(N[C@@H]4CCN(C)C[C@@H]4F)cccn3c2SC(F)(F)F)c1
pKd: > 8.00

Consider the following items and state reported pKd for each.
1. [2H]C([2H])([2H])Oc1cc(C(=O)NC)ccc1NCC#Cc1nn2c(N[C@@H]3CCN(C)C[C@@H]3F)cccc2c1SC(F)(F)F
2. CNC(=O)c1ccc(OCCN(C)C)c(NCC#Cc2nc3c(N[C@@H]4CCOC[C@@H]4F)cccn3c2SC(F)(F)F)c1
3. C[C@H](O)CNC(=O)c1ccc(NCC#Cc2cc3c(N[C@@H]4CCN(C)C[C@@H]4F)cccn3c2SC(F)(F)F)cc1
4. CNC(=O)c1ccc(OC)c(NCC#Cc2cc3c(N[C@@H]4CN(C)C[C@@H]4F)nccn3c2SC(F)F)n1
5. [2H]C([2H])([2H])Oc1ccc(C(=O)NC)cc1NCC#Cc1nc2c(N[C@@H]3CCN(C)C[C@@H]3F)cccn2c1SC(F)(F)F
6. CNC(=O)c1ccc(NCC#Cc2cc3c(N[C@@H]4CCN(C)C[C@@H]4F)cccn3c2SC(F)(F)F)c(C(=O)NC)c1
7. COc1cc(C(=O)NC[C@H](C)O)ccc1NCC#Cc1cc2c(N[C@@H]3CCN(C)C[C@@H]3F)cccn2c1SC(F)(F)F

1: > 8.00; 2: > 8.00; 3: > 8.00; 4: > 8.00; 5: > 8.00; 6: > 8.00; 7: > 8.00

Give pKd for each of the items listed below.
1. CNC(=O)CN1CC[C@@H](Nc2nccn3c(SC(F)(F)F)c(C#CCNc4cc(C(=O)NC)ccc4OC)cc23)[C@@H](F)C1
2. COc1ccc(C(=O)N[C@@H](C)[C@H](C)O)cc1NCC#Cc1cc2c(N[C@@H]3CCN(C)C[C@@H]3F)cccn2c1SC(F)(F)F
3. [2H]C([2H])([2H])Oc1cc(S(C)(=O)=O)ccc1NCC#Cc1cc2c(N[C@@H]3CCN(C(F)(F)F)C[C@@H]3F)cccn2c1SC(F)(F)F

1. > 8.00
2. > 8.00
3. > 8.00

---

- STUDY SYSTEM: p53 Y220C (Homo sapiens, UniProt P04637, Y220C)
- PROCEDURE TEXT: Luciferase Reporter Assay (Luc), p53 response element, NClH1299 cells with inducible p53 Y220C
- Assay type: cell-based
- CONDITIONS USED: AC50; luciferase reporter, NClH1299 inducible p53 Y220C, 6 hour; read-out: Luc P53 Y220C AC50
OBSERVABLE: AC50

COMPOUND: CNC(=O)c1ccc(OC[C@H](C)O)c(NCC#Cc2cc3c(N[C@@H]4CCN(C)C[C@@H]4F)nccn3c2SC(F)(F)F)c1 (single isomer, unassigned) [Example 355]
AC50: < 750 nM
--
COMPOUND: CNC(=O)c1ccc(OC)c(NCC#Cc2cn3c(N[C@@H]4CCN(C)C[C@@H]4F)cccc3c2SC(F)(F)F)c1 [Example 393]
AC50: < 750 nM
--
COMPOUND: CNC(=O)c1ccc(OC)c(NCC#Cc2nn3c(N[C@@H]4C[C@H]5CC[C@H](N5)[C@@H]4F)cccc3c2SC(F)(F)F)c1 [Example 269]
AC50: < 750 nM

Required: AC50, one value per compound below.
1. CNC(=O)c1ccc(NCC#Cc2cc3c(N[C@@H]4CN(C)C[C@@H]4F)cccn3c2SC(F)(F)F)c(OC)c1 [Example 386]
2. CNC(=O)c1cnc(OC)c(NCC#Cc2cc3c(N[C@@H]4CCN(C)C[C@@H]4F)nccn3c2SC(F)(F)F)c1 [Example 255]
3. CNC(=O)c1ccc(OC)c(NCC#Cc2nc3c(N[C@H]4C[C@@H]5CC[C@H]4N5)cccn3c2SC(F)(F)F)c1 [Example 245]

< 750 nM
< 750 nM
1500 to 3000 nM

---

- System: H1299 p53 Y220C
- PROCEDURE TEXT: Cell Proliferation Assay (CellTiter-Glo, CTG), H1299 p53 Y220C (NClH1299-inducible p53 Y220C)
- Assay type: cell-based
- CONDITIONS USED: Homo sapiens, NCI-H1299, 120 h, CellTiter-Glo, H1299 p53 Y220C, 5 days
Kindly state IC50 for each of the entries shown.

Completed entries (count: 8):
COMPOUND: CNC(=O)c1cc(OC)c(NCC#Cc2nc3c(N[C@@H]4CCN(C)C[C@@H]4F)cccn3c2CC(F)(F)F)cc1Cl [Example 111]
REPORTED: 0.75 to 1.5 µM
--
COMPOUND: CNC(=O)c1ccc(NCC#Cc2nc3c(N[C@@H]4CCN(C)C[C@@H]4F)cccn3c2CC(F)(F)F)c(OCCOC)c1 [Example 62]
REPORTED: 0.75 to 1.5 µM
--
COMPOUND: C[C@@H](O)C#Cc1nc2c(N[C@@H]3CCN(C)C[C@@H]3F)cccn2c1CC(F)(F)F [Example 70]
REPORTED: > 3 µM
--
COMPOUND: CNC(=O)c1ccnc(NCC#Cc2nc3c(N[C@@H]4CCN(C)C[C@@H]4F)cccn3c2SC(F)(F)F)c1 [Example 150]
REPORTED: > 3 µM
--
COMPOUND: COc1cc(C(=O)N2CCCC2)ccc1NCC#Cc1nc2c(N[C@@H]3CCN(C)C[C@@H]3F)cccn2c1CC(F)(F)F [Example 50]
REPORTED: 0.75 to 1.5 µM
--
COMPOUND: CNC(=O)c1ccc(OC)c(NCC#Cc2nc3c(N[C@@H]4CNC[C@@H]4F)cccn3c2SC(F)(F)F)n1 [Example 172]
REPORTED: < 0.75 µM
--
COMPOUND: CNC(=O)c1ccc(NCC#Cc2nc3c(N[C@@H]4CNC[C@@H]4F)cccn3c2SC(F)(F)F)c(OC)c1 [Example 102]
REPORTED: < 0.75 µM
--
COMPOUND: CNC(=O)c1ccc(NCC#Cc2nc3c(N[C@@H]4CCN(C)C[C@@H]4F)cccn3c2CC(F)(F)F)cn1 [Example 52]
REPORTED: 1.5 to 3 µM

Consider the following items and state reported IC50 for each.
1. CNC(=O)N1CCC(Nc2cccn3c(CC(F)(F)F)c(C#CCNc4ccc(S(C)(=O)=O)cc4OC)nc23)CC1 [Example 117]
2. CN1CC[C@@H](Nc2cccn3c(CC(F)(F)F)c(C#CCNc4ccc(S(C)(=O)=O)cc4F)nc23)[C@@H](F)C1 [Example 68]
3. CNC(=O)c1ccc(NCC#Cc2nc3c(N[C@@H]4CCN(C)C[C@@H]4F)cccn3c2SC(F)(F)F)c(OCCOC)c1 [Example 104]
4. CN1CC[C@@H](Nc2cccn3c(CC(F)(F)F)c(C#CC(C)(C)O)nc23)[C@@H](F)C1 [Example 69]
5. CCOc1cc(C(=O)NC)ccc1NCC#Cc1nc2c(N[C@@H]3CCN(C)C[C@@H]3F)cccn2c1CC(F)(F)F [Example 59]

1. > 3 µM
2. 1.5 to 3 µM
3. < 0.75 µM
4. > 3 µM
5. 0.75 to 1.5 µM

Look up IC50 for the entries below, preserving their order.
1. COc1cc(S(C)(=O)=O)ccc1NCC#Cc1nc2c(NC3CC4(COC4)C3)cccn2c1CC(F)(F)F [Example 115]
2. CNC(=O)c1ccc(NCC#Cc2nc3c(NCC4(F)CNC4)cccn3c2SC(F)(F)F)c(OC)c1 [Example 197]
3. CNC(=O)c1cccc(NCC#Cc2nc3c(N[C@@H]4CCN(C)C[C@@H]4F)cccn3c2SC(F)(F)F)n1 [Example 162]
4. COCCN1CCC(Nc2cccn3c(CC(F)(F)F)c(C#CCNc4ccc(S(C)(=O)=O)cc4OC)nc23)CC1 [Example 113]
5. CNC(=O)c1ccc(NCC#Cc2nc3c(N[C@@H]4CCN(C)C[C@@H]4F)cccn3c2CC(F)(F)F)c(C2CC2)c1 [Example 57]
6. CCc1cc(C(=O)NC)ccc1NCC#Cc1nc2c(N[C@@H]3CCN(C)C[C@@H]3F)cccn2c1CC(F)(F)F [Example 58]

1. > 3 µM
2. > 3 µM
3. < 0.75 µM
4. 0.75 to 1.5 µM
5. > 3 µM
6. > 3 µM

Hi there! I need IC50 for each item below, if you can.
1. COc1cc(S(C)(=O)=O)ccc1NCC#Cc1nc2c(NC3CCN(CC(C)(C)O)CC3)cccn2c1CC(F)(F)F [Example 11]
2. CNC(=O)c1ccc(NCC#Cc2nn3c(N[C@@H]4CCN(C)C[C@@H]4F)cccc3c2CC(F)(F)F)c(OC)c1 [Example 118]
3. CNC(=O)c1ccc(OC)c(NCC#Cc2nn3c(N[C@@H]4CCNC[C@@H]4F)cccc3c2SC(F)F)c1 [Example 195]
4. CC#Cc1nn2c(N[C@@H]3CCN(C)C[C@@H]3F)cccc2c1CC(F)(F)F [Example 20]
5. COC[C@H](O)CN1CCC(Nc2cccn3c(CC(F)(F)F)c(C#CCNc4ccc(S(C)(=O)=O)cc4OC)nc23)CC1 [Example 14]
6. COc1cc(C(=O)NC(C)C)ccc1NCC#Cc1nc2c(N[C@@H]3CCN(C)C[C@@H]3F)cccn2c1CC(F)(F)F [Example 48]

1. 0.75 to 1.5 µM
2. 1.5 to 3 µM
3. < 0.75 µM
4. > 3 µM
5. 0.75 to 1.5 µM
6. < 0.75 µM

For each entry beneath this line, provide reported IC50.
1. CNC(=O)c1ccc(NCC#Cc2nc3c(NC4CCN(C)CC4)cc(NC(=O)OC(C)(C)C)cn3c2CC(F)(F)F)c(OC)c1 [Example 39]
2. CNC(=O)c1ccc(OC)c(NCC#Cc2nn3c(N[C@@H]4CCN(C)C[C@@H]4F)cccc3c2SC(F)F)c1 [Example 194]
3. CNC(=O)c1ccc(F)c(NCC#Cc2nc3c(N[C@@H]4CCN(C)C[C@@H]4F)cccn3c2SC(F)(F)F)c1 [Example 159]

> 3 µM
< 0.75 µM
< 0.75 µM
